- TGT: humanized OX2 receptor (Homo sapiens (Human))
- Sequence (O43614 whole entry): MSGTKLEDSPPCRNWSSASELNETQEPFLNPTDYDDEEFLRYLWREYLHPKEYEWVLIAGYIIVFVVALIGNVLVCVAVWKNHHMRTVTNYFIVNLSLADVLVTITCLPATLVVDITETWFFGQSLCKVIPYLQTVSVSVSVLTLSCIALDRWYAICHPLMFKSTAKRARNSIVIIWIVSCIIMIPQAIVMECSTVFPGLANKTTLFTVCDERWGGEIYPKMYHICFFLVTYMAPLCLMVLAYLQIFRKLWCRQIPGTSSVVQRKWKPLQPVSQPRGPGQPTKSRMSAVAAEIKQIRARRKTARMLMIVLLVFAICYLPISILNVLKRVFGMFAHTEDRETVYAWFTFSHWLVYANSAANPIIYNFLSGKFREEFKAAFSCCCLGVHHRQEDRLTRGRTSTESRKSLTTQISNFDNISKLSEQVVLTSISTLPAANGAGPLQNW
- METHOD_DESCRIPTION: Antagonism of humanized OX2 receptor assay (fluorescence detection of free cytoplasmic calcium, 10 nM orexin B)
- RECORDED_CONDITIONS: humanized OX2 receptor transfected HEK-293 cells
QUANTITY_MEASURED: IC50 (µM)

# count of solved cases: 2
COMPOUND | TGT | UNIT_SYMBOL | IC50
Cc1ccc(-n2nccn2)c(C(=O)N2CCCN(c3nc4ccc(Cl)cc4c(=O)[nH]3)CC2)c1 [Example 5] | humanized OX2 receptor (Homo sapiens (Human)) | µM | 0.263
Cc1ccc(-n2nccn2)c(C(=O)N2CCN(c3nc4ccc(Cl)cc4c(=O)[nH]3)CCC2C)c1 (stereo not shown) [Example 6] | humanized OX2 receptor (Homo sapiens (Human)) | µM | 0.221

a: Cc1ccc(-n2nccn2)c(C(=O)N2CCN(c3nc4ccc(F)cc4c(=O)[nH]3)CCC2C)c1 (stereo not shown) [Example 2]
b: Cc1ccc(-n2nccn2)c(C(=O)N2CCCN(c3nc4ccc(F)cc4c(=O)[nH]3)CC2)c1 [Example 1]
Two entries are listed, a and b . Which one carries the higher IC50? Write down the label of the entry you select.
b
